# TGT: UniProt:P52333
# Sequence (P52333 whole entry): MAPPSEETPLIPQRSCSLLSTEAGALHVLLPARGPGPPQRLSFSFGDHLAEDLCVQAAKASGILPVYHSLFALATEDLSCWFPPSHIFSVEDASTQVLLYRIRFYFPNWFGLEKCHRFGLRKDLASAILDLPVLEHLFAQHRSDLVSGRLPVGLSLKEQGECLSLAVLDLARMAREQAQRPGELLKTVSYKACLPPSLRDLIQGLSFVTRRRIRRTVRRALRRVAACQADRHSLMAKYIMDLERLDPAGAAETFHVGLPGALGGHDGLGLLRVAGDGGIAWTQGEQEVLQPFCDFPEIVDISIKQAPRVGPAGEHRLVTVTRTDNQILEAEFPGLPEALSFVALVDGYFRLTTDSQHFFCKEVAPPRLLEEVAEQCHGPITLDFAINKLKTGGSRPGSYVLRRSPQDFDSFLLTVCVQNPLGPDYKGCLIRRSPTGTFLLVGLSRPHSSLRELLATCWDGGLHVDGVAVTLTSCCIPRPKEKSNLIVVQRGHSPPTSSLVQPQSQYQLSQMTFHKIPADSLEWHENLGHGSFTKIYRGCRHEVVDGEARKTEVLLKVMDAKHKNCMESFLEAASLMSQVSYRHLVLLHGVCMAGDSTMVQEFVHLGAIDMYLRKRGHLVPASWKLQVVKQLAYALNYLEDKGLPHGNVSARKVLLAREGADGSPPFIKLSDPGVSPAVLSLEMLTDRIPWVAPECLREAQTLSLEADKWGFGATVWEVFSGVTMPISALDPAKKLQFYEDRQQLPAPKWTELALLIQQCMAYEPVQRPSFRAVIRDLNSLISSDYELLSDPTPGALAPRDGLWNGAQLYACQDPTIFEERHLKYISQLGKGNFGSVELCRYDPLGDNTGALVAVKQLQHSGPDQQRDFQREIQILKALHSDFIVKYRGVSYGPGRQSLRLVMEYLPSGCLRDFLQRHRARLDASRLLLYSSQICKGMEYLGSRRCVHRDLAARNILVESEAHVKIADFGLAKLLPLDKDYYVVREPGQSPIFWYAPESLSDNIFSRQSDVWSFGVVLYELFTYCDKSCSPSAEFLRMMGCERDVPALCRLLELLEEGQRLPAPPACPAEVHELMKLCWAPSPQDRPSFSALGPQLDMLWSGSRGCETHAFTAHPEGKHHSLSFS
# TEST DESCRIPTION: biochemical
# Description: Inhibition of recombinant human N-terminal GST-tagged JAK3 (781 to end residues) expressed in baculovirus infected Sf9 cells using poly (Glu,Tyr) 4:1 as substrate incubated for 60 mins in presence of ATP by ADP-Glo kinase assay

[
  {
    "CHEMICAL SMILES": "N#Cc1ccccc1Nc1nc(Nc2ccc(NC(=O)CN3CCOCC3)cc2)ncc1Cl",
    "UOM": "nM",
    "IC50": 20.7
  }
]

###

# System: PC-3
# TEST DESCRIPTION: Antiproliferative activity against human PC-3 cells measured after 72 hrs by MTT assay
# Type: functional, cell-based
# TEST SETTINGS: PC-3, 72 h
pIC50: −log10 of the molar value.
Below is a list of entries, each paired with its recorded pIC50 value.

[
  {
    "CHEMICAL SMILES": "CCCc1ccccc1Nc1nc(SCC(=O)N2CCN(CCOc3no[n+]([O-])c3S(=O)(=O)c3ccccc3)CC2)nc(-c2ccccc2)c1C#N",
    "TGT": "PC-3",
    "pIC50": 5.67
  },
  {
    "CHEMICAL SMILES": "N#Cc1c(Nc2cccc(F)c2)nc(SCC(=O)N2CCN(CCOc3no[n+]([O-])c3S(=O)(=O)c3ccccc3)CC2)nc1-c1ccccc1",
    "TGT": "PC-3",
    "pIC50": 5.79
  },
  {
    "CHEMICAL SMILES": "N#Cc1c(Nc2cccc(Br)c2)nc(SCC(=O)N2CCN(CCOc3no[n+]([O-])c3S(=O)(=O)c3ccccc3)CC2)nc1-c1ccccc1",
    "TGT": "PC-3",
    "pIC50": 5.81
  },
  {
    "CHEMICAL SMILES": "N#Cc1c(Nc2ccc(F)c(Cl)c2)nc(SCC(=O)N2CCN(CCOc3no[n+]([O-])c3S(=O)(=O)c3ccccc3)CC2)nc1-c1ccccc1",
    "TGT": "PC-3",
    "pIC50": 5.71
  },
  {
    "CHEMICAL SMILES": "N#Cc1c(Nc2ccccc2)nc(SCC(=O)N2CCC(Oc3no[n+]([O-])c3S(=O)(=O)c3ccccc3)CC2)nc1-c1ccccc1",
    "TGT": "PC-3",
    "pIC50": 5.70
  },
  {
    "CHEMICAL SMILES": "N#Cc1c(Nc2ccccc2)nc(SCC(=O)OCCCCCOc2no[n+]([O-])c2S(=O)(=O)c2ccccc2)nc1-c1ccccc1",
    "TGT": "PC-3",
    "pIC50": 5.64
  },
  {
    "CHEMICAL SMILES": "CCc1ccc(Nc2nc(SCC(=O)N3CCN(CCOc4no[n+]([O-])c4S(=O)(=O)c4ccccc4)CC3)nc(-c3ccccc3)c2C#N)cc1",
    "TGT": "PC-3",
    "pIC50": 5.57
  },
  {
    "CHEMICAL SMILES": "COc1cc(Nc2nc(SCC(=O)N3CCN(CCOc4no[n+]([O-])c4S(=O)(=O)c4ccccc4)CC3)nc(-c3ccccc3)c2C#N)cc(OC)c1OC",
    "TGT": "PC-3",
    "pIC50": 5.94
  },
  {
    "CHEMICAL SMILES": "N#Cc1c(Nc2ccccc2)nc(SCC(=O)OCCc2ccc(Oc3no[n+]([O-])c3S(=O)(=O)c3ccccc3)cc2)nc1-c1ccccc1",
    "TGT": "PC-3",
    "pIC50": 5.68
  },
  {
    "CHEMICAL SMILES": "CCOc1ccccc1Nc1nc(SCC(=O)N2CCN(CCOc3no[n+]([O-])c3S(=O)(=O)c3ccccc3)CC2)nc(-c2ccccc2)c1C#N",
    "TGT": "PC-3",
    "pIC50": 5.69
  },
  {
    "CHEMICAL SMILES": "N#Cc1c(Nc2ccccc2)nc(SCC(=O)OCCCOc2no[n+]([O-])c2S(=O)(=O)c2ccccc2)nc1-c1ccccc1",
    "TGT": "PC-3",
    "pIC50": 5.63
  }
]

###

# Tested on: PC-3
# TEST DESCRIPTION: Antiproliferative activity against human PC-3 cells measured after 72 hrs by MTT assay
# Assay type: functional, cell-based
# TEST SETTINGS: PC-3, 72 h
VALUE KIND: IC50 (µM)

[
  {
    "CHEMICAL SMILES": "N#Cc1c(-c2ccccc2)nc(SCC(=O)N2CCN(CCOc3no[n+]([O-])c3S(=O)(=O)c3ccccc3)CC2)nc1N1CCSCC1",
    "TGT": "PC-3",
    "VALUE KIND": "IC50",
    "UOM": "µM",
    "MEASURED NUMBER": 5.05
  },
  {
    "CHEMICAL SMILES": "N#Cc1c(Nc2ccccc2C(F)(F)F)nc(SCC(=O)N2CCN(CCOc3no[n+]([O-])c3S(=O)(=O)c3ccccc3)CC2)nc1-c1ccccc1",
    "TGT": "PC-3",
    "VALUE KIND": "IC50",
    "UOM": "µM",
    "MEASURED NUMBER": 3.02
  },
  {
    "CHEMICAL SMILES": "N#Cc1c(Nc2ccc(Br)cc2)nc(SCC(=O)N2CCN(CCOc3no[n+]([O-])c3S(=O)(=O)c3ccccc3)CC2)nc1-c1ccccc1",
    "TGT": "PC-3",
    "VALUE KIND": "IC50",
    "UOM": "µM",
    "MEASURED NUMBER": 1.94
  },
  {
    "CHEMICAL SMILES": "N#Cc1c(-c2ccccc2)nc(SCC(=O)N2CCN(CCOc3no[n+]([O-])c3S(=O)(=O)c3ccccc3)CC2)nc1N1CCOCC1",
    "TGT": "PC-3",
    "VALUE KIND": "IC50",
    "UOM": "µM",
    "MEASURED NUMBER": 6.98
  }
]

###

# System: PC-3
# TEST DESCRIPTION: Antiproliferative activity against human PC-3 cells measured after 72 hrs by MTT assay
# Type: functional, cell-based
# TEST SETTINGS: PC-3, 72 h
The reader will find reported IC50 values listed item by item below.
VALUE KIND: IC50 (nM)

[
  {
    "CHEMICAL SMILES": "C=CC(=O)Nc1cccc(Nc2nc(SCC(=O)N3CCN(CCOc4no[n+]([O-])c4S(=O)(=O)c4ccccc4)CC3)nc(-c3ccccc3)c2C#N)c1",
    "MEASURED NUMBER": 1880
  },
  {
    "CHEMICAL SMILES": "N#Cc1c(Nc2ccc(Cl)c(Cl)c2)nc(SCC(=O)N2CCN(CCOc3no[n+]([O-])c3S(=O)(=O)c3ccccc3)CC2)nc1-c1ccccc1",
    "MEASURED NUMBER": 1850
  },
  {
    "CHEMICAL SMILES": "N#Cc1c(Nc2ccccc2F)nc(SCC(=O)N2CCN(CCOc3no[n+]([O-])c3S(=O)(=O)c3ccccc3)CC2)nc1-c1ccccc1",
    "MEASURED NUMBER": 1190
  },
  {
    "CHEMICAL SMILES": "N#Cc1c(Nc2ccccc2)nc(SCC(=O)OCCCCCCOc2no[n+]([O-])c2S(=O)(=O)c2ccccc2)nc1-c1ccccc1",
    "MEASURED NUMBER": 13000
  },
  {
    "CHEMICAL SMILES": "N#Cc1c(Nc2cccc(Cl)c2)nc(SCC(=O)N2CCN(CCOc3no[n+]([O-])c3S(=O)(=O)c3ccccc3)CC2)nc1-c1ccccc1",
    "MEASURED NUMBER": 1430
  },
  {
    "CHEMICAL SMILES": "CCc1ccccc1Nc1nc(SCC(=O)N2CCN(CCOc3no[n+]([O-])c3S(=O)(=O)c3ccccc3)CC2)nc(-c2ccccc2)c1C#N",
    "MEASURED NUMBER": 2930
  },
  {
    "CHEMICAL SMILES": "N#Cc1c(Nc2ccccc2)nc(SCC(=O)N2CCN(CCOc3no[n+]([O-])c3S(=O)(=O)c3ccccc3)CC2)nc1-c1ccccc1",
    "MEASURED NUMBER": 1920
  },
  {
    "CHEMICAL SMILES": "N#Cc1c(Nc2ccccc2)nc(SCC(=O)OCC#CCOc2no[n+]([O-])c2S(=O)(=O)c2ccccc2)nc1-c1ccccc1",
    "MEASURED NUMBER": 2060
  },
  {
    "CHEMICAL SMILES": "Cc1cccc(Nc2nc(SCC(=O)N3CCN(CCOc4no[n+]([O-])c4S(=O)(=O)c4ccccc4)CC3)nc(-c3ccccc3)c2C#N)c1",
    "MEASURED NUMBER": 2100
  },
  {
    "CHEMICAL SMILES": "N#Cc1c(Nc2ccccc2)nc(SCC(=O)NCCCCCOc2no[n+]([O-])c2S(=O)(=O)c2ccccc2)nc1-c1ccccc1",
    "MEASURED NUMBER": 2300
  },
  {
    "CHEMICAL SMILES": "Cc1ccc(Nc2nc(SCC(=O)N3CCN(CCOc4no[n+]([O-])c4S(=O)(=O)c4ccccc4)CC3)nc(-c3ccccc3)c2C#N)cc1",
    "MEASURED NUMBER": 2370
  },
  {
    "CHEMICAL SMILES": "CCCc1cccc(Nc2nc(SCC(=O)N3CCN(CCOc4no[n+]([O-])c4S(=O)(=O)c4ccccc4)CC3)nc(-c3ccccc3)c2C#N)c1",
    "MEASURED NUMBER": 2920
  },
  {
    "CHEMICAL SMILES": "CCN1CCN(c2nc(SCC(=O)N3CCN(CCOc4no[n+]([O-])c4S(=O)(=O)c4ccccc4)CC3)nc(-c3ccccc3)c2C#N)CC1",
    "MEASURED NUMBER": 1420
  },
  {
    "CHEMICAL SMILES": "N#Cc1c(Nc2ccccc2)nc(SCC(=O)NCCCOc2no[n+]([O-])c2S(=O)(=O)c2ccccc2)nc1-c1ccccc1",
    "MEASURED NUMBER": 2280
  }
]
